systemUnderTest: T1, mfGCGR-hFc (cynomolgus monkey (Macaca fascicularis))
T1 construct: also called mfGCGR-N-terminal hFc
T1 sequence (chain, as listed by the source limits assumed): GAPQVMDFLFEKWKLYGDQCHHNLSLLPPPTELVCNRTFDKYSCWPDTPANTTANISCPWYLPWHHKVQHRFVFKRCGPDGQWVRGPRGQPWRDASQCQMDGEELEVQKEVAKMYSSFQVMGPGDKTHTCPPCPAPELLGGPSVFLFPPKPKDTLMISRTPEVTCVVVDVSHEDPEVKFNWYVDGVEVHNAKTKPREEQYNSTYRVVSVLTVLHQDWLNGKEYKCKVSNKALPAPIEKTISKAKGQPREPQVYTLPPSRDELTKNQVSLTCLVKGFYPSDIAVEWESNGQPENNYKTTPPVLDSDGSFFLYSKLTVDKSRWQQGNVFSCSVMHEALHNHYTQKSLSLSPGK
testDescription: SPR Biacore T100, 25C, mAb captured, antigen flowed
Please go through the items and note down their kon.
Just the number please, in M⁻¹ s⁻¹, no unit attached.

Short answer for H4H1328P (antibody, V domains shown, Fully human anti-GCGR antibody; the controls are called isotype-matched hIgG4) VH: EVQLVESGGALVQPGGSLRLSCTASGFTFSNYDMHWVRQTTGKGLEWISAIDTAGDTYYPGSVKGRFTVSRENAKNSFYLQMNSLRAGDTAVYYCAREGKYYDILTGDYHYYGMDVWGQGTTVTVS VL: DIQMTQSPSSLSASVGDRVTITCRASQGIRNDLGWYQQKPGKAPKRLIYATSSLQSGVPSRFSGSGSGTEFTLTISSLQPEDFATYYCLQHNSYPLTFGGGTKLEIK : kon was 1.6e+06

Recorded result, H4H1339P (antibody, V domains shown, Fully human anti-GCGR antibody; the controls are called isotype-matched hIgG4) VH: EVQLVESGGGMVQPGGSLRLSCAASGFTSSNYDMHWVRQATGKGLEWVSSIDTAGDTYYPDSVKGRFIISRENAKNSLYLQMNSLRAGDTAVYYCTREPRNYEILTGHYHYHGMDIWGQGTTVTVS VL: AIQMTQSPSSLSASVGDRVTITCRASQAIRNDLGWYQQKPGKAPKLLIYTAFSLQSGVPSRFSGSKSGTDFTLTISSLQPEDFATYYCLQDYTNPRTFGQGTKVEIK , kon: 1.26e+06

Memo: H4H1321P (antibody, V domains shown, Fully human anti-GCGR antibody; the controls are called isotype-matched hIgG4) VH: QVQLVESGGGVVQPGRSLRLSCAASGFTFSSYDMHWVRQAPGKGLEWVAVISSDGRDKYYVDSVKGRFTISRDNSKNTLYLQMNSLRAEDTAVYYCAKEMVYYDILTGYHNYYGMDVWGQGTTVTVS VL: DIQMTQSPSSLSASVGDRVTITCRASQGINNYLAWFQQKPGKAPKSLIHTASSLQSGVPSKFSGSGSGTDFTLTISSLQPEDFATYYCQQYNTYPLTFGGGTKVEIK , reported kon: 1.76e+06

// kon value for H4H1765N (antibody, V domains shown, Anti-GCGR antibody from hybridoma; the controls are called isotype-matched hIgG4) VH: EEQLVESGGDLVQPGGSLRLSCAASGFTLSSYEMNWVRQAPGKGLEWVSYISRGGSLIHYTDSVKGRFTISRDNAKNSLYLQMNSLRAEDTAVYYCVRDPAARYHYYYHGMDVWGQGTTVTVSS VL: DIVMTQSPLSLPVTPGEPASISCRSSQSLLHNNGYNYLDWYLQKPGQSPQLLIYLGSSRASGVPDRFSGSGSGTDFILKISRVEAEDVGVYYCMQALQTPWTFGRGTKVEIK : 643000

Given item H4H1331P (antibody, V domains shown, Fully human anti-GCGR antibody; the controls are called isotype-matched hIgG4) VH: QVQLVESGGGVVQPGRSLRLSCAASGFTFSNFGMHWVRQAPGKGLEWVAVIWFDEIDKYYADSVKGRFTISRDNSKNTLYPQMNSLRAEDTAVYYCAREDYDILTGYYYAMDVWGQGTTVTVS VL: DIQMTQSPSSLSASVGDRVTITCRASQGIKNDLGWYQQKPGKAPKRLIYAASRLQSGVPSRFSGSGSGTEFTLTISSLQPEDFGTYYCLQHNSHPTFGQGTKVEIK , the value recorded as its kon is 1.17e+06

Reported kon ( H4H1327P (antibody, V domains shown, also called anti-GCGR (hIgG4) antibody designated H4H1327P) VH: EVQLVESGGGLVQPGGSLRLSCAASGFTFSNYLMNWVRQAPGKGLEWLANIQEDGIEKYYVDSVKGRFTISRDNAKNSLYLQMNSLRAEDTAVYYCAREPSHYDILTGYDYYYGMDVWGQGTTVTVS VL: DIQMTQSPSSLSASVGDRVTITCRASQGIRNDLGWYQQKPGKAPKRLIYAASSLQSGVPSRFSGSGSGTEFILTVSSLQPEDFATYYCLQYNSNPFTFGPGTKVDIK ) = 1.6e+06
